Where do these numbers come from? They come from PubChem BioAssay AID330.

test system: P388 leukemia ip, CD2F1 mice, survival T/C; experiment: NCI In Vivo Anticancer Drug Screen. Data for tumor model P388 Leukemia (intraperitoneal) in CD2F1 (CDF1) mice; details: endpoint: median survival time; dose: 400.0 mg/kg/injection; schedule: Q04DX003 (ip); vehicle: saline with Tween-80; higher = longer survival
Toxic doses and inconclusive results are not listed.
In this section, each of the compounds is paired with its reported T/C.

Recorded results for 5 compounds are shown here.
compound=C[C@]12C=CC(=O)C[C@@H]1CC[C@@H]1[C@@H]2C(=O)C[C@]2(C)C(=O)CC[C@@H]12 observed_value="108 % of control"
compound="CN(C)c1nc(N/N=C\\C(O)C(O)C(O)C(O)CO)nc(N(C)C)n1 (configuration not stated)" observed_value="102 % of control"
compound=O=[N+]([O-])c1c(Nc2ccccc2)ncnc1Nc1ccccc1 observed_value="100 % of control"
compound=c1ccc2c(c1)Sc1ccccc1N2CCCNC1=NCCO1 observed_value="90 % of control"
compound=O=C(C(=O)c1ccccn1)c1ccccn1 observed_value="100 % of control"

Ask: Give T/C for the following compound: C=C(OC(=O)CN(C)C)c1ccccc1
Result: 94 % of control

Ask: Give the measured T/C for COc1ccccc1-c1cn(O)c2nc(=N)nc(N)c-2n1
Result: 107 % of control

###

Test system: P388 leukemia ip, CD2F1 mice, survival T/C
Assay: NCI In Vivo Anticancer Drug Screen. Data for tumor model P388 Leukemia (intraperitoneal) in CD2F1 (CDF1) mice
Conditions: endpoint: median survival time; dose: 240.0 mg/kg/injection; schedule: Q01DX005 (ip); vehicle: saline with Tween-80; higher = longer survival
Procedure: The antitumor activity of compounds was measured in mice bearing transplantable tumors. Survival or tumor size were measured and the results are expressed as the measurement made in the treated group (T) divided by the measurement made in the vehicle treated control group (C). The tumor model used in this assay is P388 Leukemia (intraperitoneal) in CD2F1 (CDF1) mice
Inconclusive results and toxic doses are left out.
Catalogue of T/C readings, one per entry.

compound=COc1cc(OC)c(/C=N/NC(=S)NC23CC4CC(CC(C4)C2)C3)c(OC)c1 observed_value="89 % of control"
compound="CC1SC2(C(=O)Nc3ccc(Br)cc32)N(c2ccc(Cl)cc2)C1=O (stereo not given)" observed_value="100 % of control"
compound=Brc1ccc(-c2nc3sc(-c4ccc5c(c4)OCO5)nn3c2Br)cc1 observed_value="93 % of control"
compound="C=C(C)C(O)CCCO[Si](c1ccccc1)(c1ccccc1)C(C)(C)C (stereo not given)" observed_value="97 % of control"
compound="COc1ccc2nc(NC(=O)C(=O)C(C)C(=O)c3ccc(Cl)cc3)sc2c1 (stereo not given)" observed_value="105 % of control"
compound="CC1(C)COC1(c1ccccc1)c1cccnc1 (stereo not given)" observed_value="93 % of control"

Ask: Give the observed T/C of C[C@@H]1CC=C[C@@H](NC(=O)OCc2ccccc2)[C@H]1C=O for P388 leukemia ip, CD2F1 mice, survival T/C.
Result: 98 % of control

Ask: Give measured T/C for COc1cc2c(cc1C(CC(C)=O)c1cc(OC)c(OC)c(OC)c1)OCO2 (stereo not given) (P388 leukemia ip, CD2F1 mice, survival T/C).
Result: 103 % of control

Ask: Determine reported T/C for O=C1CSC(c2ccccc2Cl)N1c1nncs1 (stereo not given) ; test system: P388 leukemia ip, CD2F1 mice, survival T/C.
Result: 104 % of control

Ask: Report T/C on P388 leukemia ip, CD2F1 mice, survival T/C for this entry: Cc1cc2c(=O)cc(-c3ccccc3)oc2c(C(N)=O)c1C
Result: 93 % of control
